molecular target: Paired box protein Pax-6 (Homo sapiens); assay: ATG_Pax6_CIS: Attagene CIS-FACTORIAL HepG2 Assay for human Paired Box 6 (PAX6) (AID 2282956); conditions: HepG2 CIS-FACTORIAL PAX6 reporter transcription, RNA readout; actives raise or lower the signal
Activity calls are given as the source filed them. How the source made its calls: active means hit-call score of the fitted dose curve at least 0.9, where 1 is the maximum; inactive means score below 0.9.
Lab note: assign the record to one of Y (active), N (inactive)

Completed entries (count: 3):
molecule	assayedTarget	assignedLabel
CCCCN(CCCC)N=O	Paired box protein Pax-6 (Homo sapiens)	N
CC(Cl)CN(C)C (stereo not given)	Paired box protein Pax-6 (Homo sapiens)	N
FC(F)(F)C(F)(C(F)(F)F)C(F)(F)C(F)(F)CC1CO1 (stereo not given)	Paired box protein Pax-6 (Homo sapiens)	N

Per the assay record, what outcome was assigned to `Nc1cc2c3c(c1)C(c1ccccc1)=N[C@@H](NC(=O)c1cccnc1)C(=O)N3CC2` ?
N

Try `C=CC(=O)OCC(CC)(COC(=O)C=C)COC(=O)C=C` next.
Y

Same again, this time with `Nc1ccc([N+](=O)[O-])cc1Cl`
N

Repeat for the following molecule: `CCCCCCCc1ccc(O)cc1`
N

====

read-out: Tumor necrosis factor (Homo sapiens) (UniProt P01375); assay: BSK_BT_xTNFa: BioMAP Diversity Plus: BT Assay for Tumor necrosis factor alpha (TNF-alpha) Biomarker Activity (AID 2284230); conditions: primary human B cells with PBMC
Sequence (P01375 whole entry, looked up): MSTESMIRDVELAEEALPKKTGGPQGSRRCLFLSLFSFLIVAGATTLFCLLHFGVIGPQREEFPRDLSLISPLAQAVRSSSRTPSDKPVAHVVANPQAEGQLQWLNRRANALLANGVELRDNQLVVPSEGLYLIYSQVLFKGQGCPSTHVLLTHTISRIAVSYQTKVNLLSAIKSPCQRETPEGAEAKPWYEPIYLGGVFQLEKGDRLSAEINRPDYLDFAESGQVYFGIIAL
The source made the active and inactive calls. The calls were made as follows: active = hit-call score of the fitted dose curve at least 0.9, where 1 is the maximum; inactive = score below 0.9.
Answer with one of the outcomes given here: active, inactive

# count of solved cases: 6
compound	assignedLabel
O=C(O)C(F)(F)OC(F)(F)C(F)(F)OC(F)(F)F	inactive
CCOP(=S)(NC(C)C)Oc1ccccc1C(=O)OC(C)C (stereo not drawn)	inactive
COP(=O)(O)OC	inactive
O=C(O)C(F)(F)OC(F)(F)C(F)(F)OC(F)(F)C(=O)O	inactive
N#Cc1cc([N+](=O)[O-])ccc1N	inactive
CC(C)Nc1ccc(Nc2ccccc2)cc1	active

Write down the call the test reported for this compound. Item: CC(O)C(F)(F)C(F)(F)F (stereo not drawn)
inactive

Note, next up: FC(F)(F)C(F)(C(F)(F)F)C(F)(F)C(F)(F)CC1CO1 (stereo not drawn)
inactive

// next record `CC(C)(C)c1ccccc1OP(=O)(Oc1ccccc1)Oc1ccccc1`
active

Would you mind doing `O=S(=O)(F)C(F)(F)C(F)(F)C(F)(F)C(F)(F)C(F)(F)C(F)(F)C(F)(F)C(F)(F)F` as well?
inactive

Next entry: `CCOP(=S)(OCC)SCSc1ccc(Cl)cc1`
inactive

Now the same for `NC(=O)C(F)(F)C(F)(F)F`
inactive

Next up: `OCC(F)(F)OC(F)(F)C(F)(F)OC(F)(F)CO`
inactive

Let us now turn to `Cc1ccc2c(c1N)C(=O)c1ccccc1C2=O`
active

Request: `CCCCOCCOP(=O)(OCCOCCCC)OCCOCCCC`
active

Then `O=c1ssc(Cl)c1Cl` ?
active

What do you have for `CCOP(=S)(OCC)SCS(=O)(=O)CC` ?
inactive

Record: O=S1(=O)OCC2C(CO1)C1(Cl)C(Cl)=C(Cl)C2(Cl)C1(Cl)Cl (stereo not drawn)
active

Consider next the compound `CCOP(=S)(OCC)SCn1nnc2ccccc2c1=O` in the same way.
inactive

====

read-out: CYP2E1 (gene 1571); experiment: LTEA_HepaRG_CYP2E1: Life Technologies and Expression Analysis (LTEA) Assay for CYP2E1 using HepaRG (AID 2283485); details: mRNA level, 48 h; actives raise or lower the signal
Active and inactive are the calls of the source. Rule for the calls: active = hit-call score of the fitted dose curve at least 0.9, where 1 is the maximum; inactive = score below 0.9.
Response enum: active, inactive

Answered examples (5):
compound	assignedLabel
Nc1ccc(Cl)cc1	inactive
CCCN(CCC)c1c([N+](=O)[O-])cc(C(C)C)cc1[N+](=O)[O-]	active
O=[N+]([O-])c1ccccc1	inactive
OCC1CO1 (stereo unspecified)	inactive
[N-]=[N+]=[N-]	active

In this assay, the call recorded for `Nc1cc2c3c(c1)C(c1ccccc1)=N[C@@H](NC(=O)c1cccnc1)C(=O)N3CC2` was what?
active

Same read-out for CC(Cc1ccc(OCC(=O)O)cc1)NCC(O)c1csc(C(F)(F)F)n1 (stereo unspecified) ?
inactive

Then what about the compound `Cc1cccc(N)c1` ?
inactive

Same again, this time with `CCCCCCCc1ccc(O)cc1`
inactive

Then `c1ccc(OP(Oc2ccccc2)Oc2ccccc2)cc1` ?
inactive

Next: `O=[N+]([O-])c1ccc(Cl)c(Cl)c1`
inactive

Next entry: `CCOS(=O)(=O)OCC`
inactive

Also, O=P1(N(CCCl)CCCl)NCCCO1 (stereo unspecified) please.
inactive

Same for `CSC(C)(C)C=NO`
inactive

Next: `Nc1ccc2ccccc2c1`
active

Same read-out for `CCOC(=O)c1ccccc1C(=O)OCC` ?
inactive

Now consider `CCNc1nc(Cl)nc(NC(C)(C)C)n1` and answer again.
active

Sourced from PubChem BioAssay (EPA / NIEHS)
